Reported AIRE transcriptional activation functional score values follow for various variants
B1: library; numbered along this chain (parent)
chain: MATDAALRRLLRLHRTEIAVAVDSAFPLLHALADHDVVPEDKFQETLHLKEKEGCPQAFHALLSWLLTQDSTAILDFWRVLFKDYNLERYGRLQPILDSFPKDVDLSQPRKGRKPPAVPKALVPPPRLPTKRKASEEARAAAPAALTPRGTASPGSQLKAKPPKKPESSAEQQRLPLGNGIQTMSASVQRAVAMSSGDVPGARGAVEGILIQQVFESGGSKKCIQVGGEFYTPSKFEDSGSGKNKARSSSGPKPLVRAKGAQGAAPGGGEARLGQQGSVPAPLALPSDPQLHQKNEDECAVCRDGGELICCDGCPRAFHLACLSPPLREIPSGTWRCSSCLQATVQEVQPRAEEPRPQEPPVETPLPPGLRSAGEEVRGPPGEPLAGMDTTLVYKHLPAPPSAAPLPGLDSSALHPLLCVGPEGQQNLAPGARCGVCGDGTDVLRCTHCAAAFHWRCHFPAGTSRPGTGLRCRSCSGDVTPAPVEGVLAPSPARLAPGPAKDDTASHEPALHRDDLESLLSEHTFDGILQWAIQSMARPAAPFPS

- Variants of: B1
- method notes: AIRE transcriptional activation functional score (insulin promoter-GFP; nonsense median 0, synonymous median 1) (normalised score); higher = higher AIRE activity (more reporter activation)
- cond: with insulin promoter-GFP reporter in HEK293
endpoint: AIRE transcriptional activation functional score

variant spec: N295R
readout value: 0.795
--
variant spec: F215D
readout value: 0.909
--
variant spec: R351H
readout value: 0.73
--
variant spec: C55Q
readout value: -0.411
--
variant spec: A140I
readout value: 1.46
--
variant spec: L158H
readout value: 0.949
--
variant spec: P289W
readout value: 1.43
--
variant spec: A537T
readout value: 1.41
--
variant spec: F453V
readout value: 0.154
--
variant spec: Y90W
readout value: -0.215
--
variant spec: E423M
readout value: 0.551
--
variant spec: S287Q
readout value: 1.24
--
variant spec: G218A
readout value: 1.02
--
variant spec: T344P
readout value: 1.07
--
variant spec: T391V
readout value: 1.16
--
variant spec: A152H
readout value: 0.789
--
variant spec: E216V
readout value: 0.252
--
variant spec: R89C
readout value: 0.253
--
variant spec: A138C
readout value: 1.51
--
variant spec: P405S
readout value: 1.05
--
variant spec: P542R
readout value: 0.209
--
variant spec: R473V
readout value: 0.334
--
variant spec: P126V
readout value: 0.0693
--
variant spec: T232W
readout value: 0.451
--
variant spec: F100L
readout value: 0.191
--
variant spec: G369C
readout value: 1.25
--
variant spec: A145R
readout value: 0.804
--
variant spec: D23T
readout value: -0.174
--
variant spec: H512R
readout value: 0.445
--
variant spec: T46N
readout value: -0.328
--
variant spec: F236V
readout value: 0.877
--
variant spec: F453P
readout value: 0.207
--
variant spec: P326L
readout value: 1.1
--
variant spec: L32F
readout value: -0.313
--
variant spec: Q530D
readout value: 0.251
--
variant spec: R174A
readout value: 0.803
--
variant spec: A25F
readout value: 0.583
--
variant spec: F318Y
readout value: 1.07
--
variant spec: P315R
readout value: 0.972
--
variant spec: L67K
readout value: 0.25
--
variant spec: A264F
readout value: 1
--
variant spec: P509L
readout value: 0.827
--
variant spec: G374V
readout value: 1.07
--
variant spec: S185G
readout value: 0.881
--
variant spec: V487E
readout value: -0.349
--
variant spec: A61C
readout value: -0.153
--
variant spec: E45M
readout value: -1.43
--
variant spec: K42C
readout value: -0.000636
--
variant spec: L406G
readout value: 1.08
--
variant spec: L177C
readout value: 0.72
--
variant spec: P116G
readout value: 0.577
--
variant spec: V38K
readout value: 0.354
--
variant spec: L444V
readout value: 1.13
--
variant spec: P481R
readout value: 0.956
--
variant spec: I181N
readout value: 1.53
--
variant spec: D41N
readout value: 1.79
--
variant spec: A300T
readout value: 0.981
--
variant spec: D297K
readout value: 1.49
--
variant spec: A373W
readout value: -0.241
--
variant spec: K111M
readout value: -0.763
--
variant spec: K102D
readout value: 0.758
--
variant spec: R132I
readout value: -0.0777
--
variant spec: C337N
readout value: 1.53
--
variant spec: L520T
readout value: 0.23
--
variant spec: K501M
readout value: 0.223
--
variant spec: K253G
readout value: 0.631
--
variant spec: A461D
readout value: 0.676
--
variant spec: P143R
readout value: 0.548
--
variant spec: K133S
readout value: 0.436
--
variant spec: A61Y
readout value: -0.0286
--
variant spec: P499F
readout value: 1.11
--
variant spec: S324Q
readout value: 0.407
--
variant spec: G208S
readout value: 0.651
--
variant spec: D389T
readout value: 1.23
--
variant spec: T468G
readout value: 1.08
--
variant spec: A246E
readout value: 0.55
--
variant spec: G263P
readout value: 0.887
--
variant spec: V123F
readout value: 1.33
--
variant spec: L520K
readout value: 0.452
--
variant spec: E423G
readout value: 1.34
--
variant spec: P143W
readout value: 1.15
--
variant spec: Y85G
readout value: -1.95
--
variant spec: A170N
readout value: 1.2
--
variant spec: V188T
readout value: 0.434
--
variant spec: G306K
readout value: 0.811
--
variant spec: Q94N
readout value: -0.193
--
variant spec: L158Y
readout value: 1.07
--
variant spec: R15A
readout value: -0.222
--
variant spec: E353V
readout value: 1.15
--
variant spec: R12V
readout value: 0.442
--
variant spec: P380N
readout value: 1.52
